# Assay remarks: Cytotoxicity assay of BA and BOA (Cell Counting Kit-8), WM-266-4
# Condition description: human, WM-266-4 metastatic melanoma cells
Measurement name: viability at 48 h, 100 µM

Query :: Can you share its viability at 48 h, 100 µM? I mean this compound: C=C(C)[C@@H]1CC[C@]2(C(=O)O)CC[C@]3(C)[C@H](CC[C@@H]4[C@@]5(C)CC[C@H](O)C(C)(C)[C@@H]5CC[C@]43C)[C@@H]12
Result :: ~0%

----------
# Assay remarks: Cytotoxicity assay of BA and BOA (Cell Counting Kit-8), PC-3
# Condition description: human, PC-3 metastatic prostate cancer cells
Measurement name: viability at 48 h, 100 µM

Query :: Can you share its viability at 48 h, 100 µM? I mean this compound: C=C(C)[C@@H]1CC[C@]2(C(=O)O)CC[C@]3(C)[C@H](CC[C@@H]4[C@@]5(C)CC[C@H](O)C(C)(C)[C@@H]5CC[C@]43C)[C@@H]12
Result :: ~0%
